The measurements presented in this section are drawn from ChEMBL document CHEMBL1201862.

Test system: CAKI-1
Test: NCI tumour cell line growth inhibition, 48 h
Active and inactive are the calls of the source. No stated cut-off is given here; in the data, active = GI50 up to about 1.1 µM and inactive = higher.
Measured Parameter: GI50

Task: Identify GI50 associated with the molecule `COc1ccc(NC(=S)N/N=C2\C(=O)Nc3ccccc32)cc1`
Output: 5.11 µM (inactive)

Task: Identify GI50 associated with the molecule C/C(=N/O)C1CC=C(S(=O)(=O)c2ccccc2)C1 (stereo unspecified)
Output: > 100 µM (inactive)

Task: Identify GI50 associated with the molecule `C1=Nc2ccccc2Cn2nncc21`
Output: 29.9 µM (inactive)

Task: Identify GI50 associated with the molecule `Cc1cc([N+](=O)[O-])c(C)c2c1[nH]c1ccc(Cl)cc12`
Output: > 100 µM (inactive)

Task: Identify GI50 associated with the molecule `CN(C)CCCN1c2ccccc2Sc2cnccc21`
Output: 63.1 µM (inactive)

Task: Identify GI50 associated with the molecule `Cn1c2ccccc2c(=NNc2ccc(S(N)(=O)=O)cc2)c2ccccc21`
Output: 15.7 µM (inactive)

* * *

Test system: HCC 2998
Assay: NCI tumour cell line growth inhibition, 48 h
Activity calls are given as the source filed them. No stated cut-off is given here; in the data, active = GI50 up to about 1.1 µM and inactive = higher.
Measured Parameter: GI50

Task: Identify GI50 associated with the compound `N#CC(c1ccccc1)(c1ccccc1)[C@@H](c1ccccc1)[C@H](Cc1ccccc1)NS(=O)(=O)c1ccccc1`
Output: > 100 µM (inactive)

Task: Identify GI50 associated with the compound CCCCCCCCCCCCCCCCNc1ccn(C2CC(OP(=O)(O)OCC3OC(n4cc(CC)c(=O)[nH]c4=O)CC3O)C(CO)O2)c(=O)n1 (stereo not given)
Output: 24.5 µM (inactive)

Task: Identify GI50 associated with the compound `CN(Cc1ccccc1)/C(=N\C#N)N(Cc1ccccc1)Cc1ccccc1`
Output: 34.8 µM (inactive)

Task: Identify GI50 associated with the compound `CCN(CC)CCNc1ccc2nnn3c4ccc(OC(C)=O)cc4c(=O)c1c23`
Output: 2.53 µM (inactive)

Task: Identify GI50 associated with the compound `CC(C)(c1ccccc1)c1ccc(OC#N)cc1`
Output: > 77.6 µM (inactive)

* * *

System: NCI-H226
Assay: NCI tumour cell line growth inhibition, 48 h
Activity calls are given as the source filed them. Cut-off read from the data, not from the text of the source: active = GI50 up to about 1.1 µM and inactive = higher.
Would you mind answering with one of these outcomes? active, inactive

Task: Field: outcome | Entry: `COc1ccc(/C=C2\C(=O)N(NC(C)=O)c3ccccc32)cc1`
Output: inactive

Task: Field: outcome | Entry: `O=[N+]([O-])c1ccc2nc(=S)[nH]n2c1`
Output: inactive

Task: Field: outcome | Entry: C=C1CC(Cn2cc(C)c(=O)[nH]c2=O)(c2ccc(Cl)cc2)OC1=O (centres undefined)
Output: inactive

Task: Field: outcome | Entry: `Cc1cc(C)nc(NS(=O)(=O)c2ccc(NC(=O)c3cccc4c(=O)c5ccccc5[nH]c34)cc2)n1`
Output: inactive

Task: Field: outcome | Entry: `COc1cc2c(cc1OCCCCCOc1cc3c(cc1OC)C(=O)N1CCC[C@H]1CN3)N=C[C@@H]1CCCN1C2=O`
Output: inactive

Task: Field: outcome | Entry: `CNc1ncc(-c2nnnn2-c2ccccc2)c(CN(C)C)n1`
Output: inactive

Task: Field: outcome | Entry: `CCN(CC)CCNc1ccc2nnn3c4ccc(OC(C)=O)cc4c(=O)c1c23`
Output: active

Task: Field: outcome | Entry: CC1=CCC2CC1NC(=O)CCOCCC(=O)NC2(C)C (centres undefined)
Output: inactive

Task: Field: outcome | Entry: Cc1cccc(C)c1NC(=O)C(=O)C(C(=O)c1ccccc1-c1ccccc1)C1OC(=O)c2ccccc21 (centres undefined)
Output: inactive

Task: Field: outcome | Entry: O=c1ccn([C@@H]2C[C@H](CO)C[S+]([O-])C2)c(=O)[nH]1 (some centres undefined)
Output: inactive

Task: Field: outcome | Entry: `COc1cc2c[n+](C)c3c4cc(OC)c(OC)cc4c(OCCCCCCCCOc4cc5c6cc(OC)c(OC)cc6c[n+](C)c5c5cc(OC)c(OC)cc45)cc3c2cc1OC`
Output: inactive

Task: Field: outcome | Entry: `CC(C)c1cccc(=O)c(O)c1`
Output: inactive

Task: Field: outcome | Entry: `COC(=O)c1sc2c(=O)c(C(=O)OC)c(C(=O)OC)sc2c(=O)c1C(=O)OC`
Output: inactive

Task: Field: outcome | Entry: CCCCCCCCCCCCCCCCNc1ccn(C2CC(OP(=O)(O)OCC3OC(n4cc(CC)c(=O)[nH]c4=O)CC3O)C(CO)O2)c(=O)n1 (centres undefined)
Output: inactive

Task: Field: outcome | Entry: `O=C(c1cccs1)N1CCN(C(=O)c2cccs2)C1=S`
Output: inactive

Task: Field: outcome | Entry: `O=c1c(Br)cc2nc3ccccc3sc-2c1Br`
Output: inactive

Task: Field: outcome | Entry: CC(C)(C)c1cc(C(C)(C)C)c(P=C(Cl)Cl)c(C(C)(C)C)c1 (centres undefined)
Output: inactive

Task: Field: outcome | Entry: `COc1cc(O)c2c(=O)c3cccc(C)c3[nH]c2c1`
Output: inactive

Task: Field: outcome | Entry: C=C1[C@H](OCC(C)C)[C@@H](OC(=O)C(C)CC)[C@@H](O)C(C)(C)/C=C/[C@H](C)C(=O)[C@@]2(O)C[C@H](C)[C@H](O)[C@@H]2[C@H]1OC(=O)C(C)CC (some centres undefined)
Output: inactive

* * *

Test system: SN12C
Experiment: NCI tumour cell line growth inhibition, 48 h
Activity calls are given as the source filed them. No stated cut-off is given here; in the data, active = GI50 up to about 1.1 µM and inactive = higher.
Measured Parameter: GI50

Task: Identify GI50 associated with the molecule CCN(CC)CCCNC(=O)C1COc2cc(-c3cc(=O)c4ccccc4o3)ccc2O1 (stereo unspecified)
Output: 45.6 µM (inactive)

Task: Identify GI50 associated with the molecule `O=[N+]([O-])c1cc2c([N+](=O)[O-])cccc2o1`
Output: 12.1 µM (inactive)

Task: Identify GI50 associated with the molecule `COc1ccc(-n2nnc3c(C#N)c(C)c(-c4ccccc4)n3c2=O)cc1`
Output: 4.34 µM (inactive)

Task: Identify GI50 associated with the molecule `CC(C)c1cccc2sc(NC(=O)C(=O)CC(=O)c3ccc(F)cc3)nc12`
Output: > 100 µM (inactive)

Task: Identify GI50 associated with the molecule NC(Cc1ncccn1)C(=O)O (stereo unspecified)
Output: > 100 µM (inactive)

Task: Identify GI50 associated with the molecule `C[C@@H]1[C@H](O)CC2=C(CC[C@@H](O)C2(C)C)[C@@]1(CO)CCc1ccoc1`
Output: > 50 µM (inactive)

Task: Identify GI50 associated with the molecule `Cc1cn([C@H]2C[C@](C)(CO)N(C)O2)c(=O)[nH]c1=O`
Output: > 100 µM (inactive)

Task: Identify GI50 associated with the molecule `COc1cc2c(cc1O)[C@@]1(Cc3ccc(OC)c(OC)c3)CCC(=O)N1CC2`
Output: > 100 µM (inactive)

Task: Identify GI50 associated with the molecule CC(C)(C)C1=C(Br)C(C(C)(C)C)OP1(=O)O (stereo unspecified)
Output: > 100 µM (inactive)

Task: Identify GI50 associated with the molecule N[C@H]1CCCC[C@@H]1N1C(=O)c2ccccc2C1(O)c1ccc(Cl)cc1 (stereo partly specified)
Output: 13.7 µM (inactive)

Task: Identify GI50 associated with the molecule CC(C)(C)OC(=O)NCC(=O)NC1CC=CCC1NC(=O)CNC(=O)OC(C)(C)C (stereo unspecified)
Output: > 100 µM (inactive)

* * *

Tested on: COLO 205
Test: NCI tumour cell line growth inhibition, 48 h
Activity calls are given as the source filed them. Cut-off read from the data, not from the text of the source: active = GI50 up to about 1.1 µM and inactive = higher.
Measured Parameter: GI50

Task: Identify GI50 associated with the compound `O=C(Cn1ccnc1[N+](=O)[O-])NCCO`
Output: > 100 µM (inactive)

Task: Identify GI50 associated with the compound `O=C(NC(=S)NC(=O)c1cc(O)c(O)c(O)c1)c1cc(O)c(O)c(O)c1`
Output: 22.6 µM (inactive)

Task: Identify GI50 associated with the compound `O=C1c2ccccc2C(=O)N1CCCOCc1cnc(O)nc1O`
Output: > 100 µM (inactive)

Task: Identify GI50 associated with the compound `CCC(=O)NC(Nc1ccccc1F)(C(F)(F)F)C(F)(F)F`
Output: > 100 µM (inactive)

Task: Identify GI50 associated with the compound `c1ccc2c(c1)[C@@H]1O[C@@H]1[C@@]13O[C@@]21[C@H]1O[C@H]1c1ccccc13`
Output: 15.7 µM (inactive)

Task: Identify GI50 associated with the compound `CN(C)c1ccc(/C=N/N=C2\C(=O)Nc3c(Cl)cc(Cl)cc32)cc1`
Output: 52.6 µM (inactive)

Task: Identify GI50 associated with the compound `O=C(NCCCN1CCN(CCCNC(=O)Nc2cc(Cl)ccc2Cl)CC1)Nc1cc(Cl)ccc1Cl`
Output: 45.5 µM (inactive)

Task: Identify GI50 associated with the compound Cc1cccc(NC2=NC(=O)C(CC(=O)Nc3ccc(Cl)cc3C)S2)c1 (stereo not given)
Output: > 100 µM (inactive)

Task: Identify GI50 associated with the compound `CCC(=O)NCCc1c2c3c(ccnc3c3ncsc13)-c1ccccc1N2`
Output: 1.45 µM (inactive)

Task: Identify GI50 associated with the compound `CC(C)=NN/C=N\C(C#N)=C(/N)C#N`
Output: > 100 µM (inactive)
